Consider the following compounds and their measured melting point readings.

For orientation, consider the following solved cases.
Task: Please give the documented melting point of COC(=O)C=C(C)c1ccc(CCC(C)(C)NCC(O)c2ccccc2)cc1 (stereo not drawn)
Output: 98 to 102 °C

Task: Please give the documented melting point of Cc1ccc(OCc2ccccc2)c(C(CCN2CC3(C)CC3(C)C2)c2ccccc2)c1 (stereo not drawn)
Output: 93 to 95 °C

Okay, next one:
Task: Please give the documented melting point of O=[N+]([O-])c1cn(C2OC(CO)C(O)C2O)nn1 (stereo not drawn)
Output: 172 to 174 °C

====

recorded metric: melting point

Task: Please give the documented melting point of CC(Oc1ccc(-c2ccc(S(N)(=O)=O)c(F)c2)cc1)C(O)CCc1cccnc1 (stereo unspecified)
Output: 178 to 180 °C

Task: Please give the documented melting point of CN1CC(CCCCN2CCN(c3ccccc3)CC2)OC1=O (stereo unspecified)
Output: 85 to 88 °C

Task: Please give the documented melting point of Cc1cc(NCCNc2cc(C)[nH]n2)n[nH]1
Output: 255 to 257 °C

Task: Please give the documented melting point of O=C(O)COc1ccc2c(c1)CCc1sc(S(=O)(=O)CCC(c3ccccc3)c3ccccc3)nc1-2
Output: 175 to 177 °C

Task: Please give the documented melting point of COC(=O)CC1=C(C)C(=Cc2ccc(S(=O)(=O)NC(C)=O)cc2)c2ccc(OC)cc21
Output: 172 to 174 °C

Task: Please give the documented melting point of CCOC(=S)C(C=P(c1ccccc1)(c1ccccc1)c1ccccc1)C(=O)C(F)(F)F (stereo unspecified)
Output: 190 °C

Continuing:
Task: Please give the documented melting point of C(=C\c1nc(COc2ccc(CCCCn3cncn3)cc2)co1)/c1ccccc1
Output: 94 to 95 °C

Task: Please give the documented melting point of COc1ccc(C2Sc3c(ccc4ccccc34)NC(=O)C2O)cc1 (stereo unspecified)
Output: 232 to 234 °C

Task: Please give the documented melting point of CCCCC1CCC2NC(=O)C(=O)C2C1 (stereo unspecified)
Output: 112 to 113 °C

Task: Please give the documented melting point of CCOc1cc2c(cc1OCC)C(C(C#N)SCCCO)=NCC2 (stereo unspecified)
Output: 100 to 105 °C

Task: Please give the documented melting point of N#Cc1ccc(Cn2cc(C=CC=O)nn2)cc1
Output: 152 to 155 °C
